Entries annotated with measured ID50
# Tested on: Human alphaherpesvirus 2
# method.summary: Concentration required to reduce the number of viral plaques […] cell monolayers of herpes simplex virus type 2.
# Assay type: functional

| compound | comparison.sign | ID50, µM |
| --- | --- | --- |
| CCc1cn([C@H]2C[C@H](O)[C@@H](COP(=O)(O)CC(=O)O)O2)c(=O)[nH]c1=O | = | 700 |
| CCc1cn([C@H]2C[C@H](O)[C@@H](CO)O2)c(=O)[nH]c1=O | = | 23 |
| Nc1nc(O)c2ncn(C3O[C@H](COP(=O)(O)CC(=O)O)[C@@H](O)[C@H]3O)c2n1 (some centres not stated) | > | 2000 |
| Nc1ncnc2c1ncn2[C@@H]1O[C@H](CO)[C@@H](O)[C@@H]1O | = | 75 |
| O=C(O)P(=O)(O)O | = | 120 |
| O=C(CP(=O)(O)O)OC[C@H]1O[C@@H](n2cc(Br)c(=O)[nH]c2=O)C[C@@H]1O | = | 7.4 |
| O=C(O)CP(=O)(O)OC[C@H]1OC(n2cc(Br)c(=O)[nH]c2=O)[C@@H](O)[C@@H]1O (some centres not stated) | > | 2000 |

----------
# Tested on: Human alphaherpesvirus 2
# method.summary: Concentration required to reduce the number of viral plaques […] cell monolayers of herpes simplex virus type 2.
# Assay type: functional
Threshold-based label: ID50 under 200 µM gives class 1, ID50 not under 200 µM gives class 0.

| smiles.record | category.label |
| --- | --- |
| Nc1nc(O)c2ncn(COCCOP(=O)(O)CC(=O)O)c2n1 | class 0 |
| Nc1nc(=O)n([C@H]2C[C@H](O)[C@@H](COP(=O)(O)CC(=O)O)O2)cc1Br | class 1 |
| O=c1[nH]c(=O)n([C@H]2C[C@H](O)[C@@H](CO)O2)cc1I | class 1 |
| Cc1cn([C@@H]2O[C@H](CO)[C@@H](O)[C@@H]2O)c(=O)[nH]c1=O | class 1 |
| Cc1cn([C@H]2C[C@H](O)[C@@H](COP(=O)(O)CC(=O)O)O2)c(=O)[nH]c1=O | class 1 |

----------
# Test system: Human alphaherpesvirus 2
# method.summary: Concentration required to reduce the number of viral plaques […] cell monolayers of herpes simplex virus type 2.
# Type: functional
Entries annotated with measured ID50
metric: ID50 (µM)

| molecule | metric | units.symbol | comparison.sign | endpoint.result |
| --- | --- | --- | --- | --- |
| O=C(O)CP(=O)(O)OC[C@H]1O[C@@H](n2cc(I)c(=O)[nH]c2=O)C[C@@H]1O | ID50 | µM | = | 10 |
| O=c1[nH]c(=O)n([C@H]2C[C@H](O)[C@@H](CO)O2)cc1Br | ID50 | µM | = | 0.7 |
| Nc1ncc([C@@H]2O[C@H](COP(=O)(O)CC(=O)O)[C@@H](O)[C@H]2O)c(=O)[nH]1 | ID50 | µM | = | 770 |
| Nc1ccn(C2O[C@H](COP(=O)(O)CC(=O)O)[C@@H](O)[C@H]2O)c(=O)n1 (some centres undefined) | ID50 | µM | = | 1200 |
| C#Cc1cn([C@H]2C[C@H](O)[C@@H](COP(=O)(O)CC(=O)O)O2)c(=O)[nH]c1=O | ID50 | µM | > | 200 |
| Nc1ncnc2c1ncn2[C@@H]1O[C@H](COP(=O)(O)CC(=O)O)[C@@H](O)[C@@H]1O | ID50 | µM | > | 2000 |
| C=Cc1cn(C2O[C@H](COP(=O)(O)CC(=O)O)[C@@H](O)[C@@H]2O)c(=O)[nH]c1=O (some centres undefined) | ID50 | µM | > | 2000 |
| O=C(O)CP(=O)(O)OC[C@H]1O[C@@H](n2cc(/C=C/Br)c(=O)[nH]c2=O)C[C@@H]1O | ID50 | µM | = | 1000 |
| Nc1nc(=O)n([C@H]2C[C@H](O)[C@@H](CO)O2)cc1Br | ID50 | µM | = | 0.15 |

----------
# Tested on: Human alphaherpesvirus 2
# method.summary: Concentration required to reduce the number of viral plaques […] cell monolayers of herpes simplex virus type 2.
# Assay type: functional
metric: ID50 (µM)

| compound | comparison.sign | endpoint.result |
| --- | --- | --- |
| O=C(O)CP(=O)(O)O [FOSFONET] | = | 240 |
| O=c1[nH]c(=O)n([C@H]2C[C@H](O)[C@@H](CO)O2)cc1/C=C/Br [BRIVUDINE] | = | 4.2 |
| Nc1ncnc2c1ncn2[C@H]1C[C@H](O)[C@@H](COP(=O)(O)CC(=O)O)O1 | > | 2000 |
| Cc1cn(C2O[C@H](COP(=O)(O)CC(=O)O)[C@@H](O)[C@@H]2O)c(=O)[nH]c1=O (stereo not given in full) | > | 2000 |
| O=C(O)P(=O)(O)OC[C@H]1O[C@@H](n2cc(Br)c(=O)[nH]c2=O)C[C@@H]1O | = | 0.44 |

----------
# Tested on: Human alphaherpesvirus 2
# method.summary: Concentration required to reduce the number of viral plaques […] cell monolayers of herpes simplex virus type 2.
# Type: functional
Entries annotated with measured ID50

| molecule | tested.system | comparison.sign | ID50 (µM) |
| --- | --- | --- | --- |
| C=Cc1cn([C@H]2C[C@H](O)[C@@H](COP(=O)(O)CC(=O)O)O2)c(=O)[nH]c1=O | Human alphaherpesvirus 2 | = | 50 |
| C#Cc1cn([C@H]2C[C@H](O)[C@@H](CO)O2)c(=O)[nH]c1=O | Human alphaherpesvirus 2 | = | 11 |
| Nc1nc2c(ncn2COCCO)c(=O)[nH]1 | Human alphaherpesvirus 2 | = | 2.2 |
| O=C(O)CP(=O)(O)OC[C@H]1OC(n2cc(I)c(=O)[nH]c2=O)[C@@H](O)[C@@H]1O (some centres undefined) | Human alphaherpesvirus 2 | > | 2000 |
| O=C(O)CP(=O)(O)OC[C@H]1O[C@@H](n2cc(Br)c(=O)[nH]c2=O)C[C@@H]1O | Human alphaherpesvirus 2 | = | 1.2 |
| O=c1[nH]c(=O)n([C@@H]2O[C@H](CO)[C@@H](O)[C@@H]2O)cc1Br | Human alphaherpesvirus 2 | = | 5.9 |
| CC(=O)c1cn(C2O[C@H](COP(=O)(O)CC(=O)O)[C@@H](O)[C@@H]2O)c(=O)[nH]c1=O (some centres undefined) | Human alphaherpesvirus 2 | > | 2000 |
| C=Cc1cn([C@H]2C[C@H](O)[C@@H](CO)O2)c(=O)[nH]c1=O | Human alphaherpesvirus 2 | = | 2 |
| O=c1[nH]c(=O)n(C2O[C@H](CO)[C@@H](O)[C@@H]2O)cc1I (some centres undefined) | Human alphaherpesvirus 2 | = | 60 |
